Numbers sourced from paper PMC10397247.

experimental system: T1, 4H3817-bN
T1 chain: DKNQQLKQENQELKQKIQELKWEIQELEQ
measurement notes: two-hybrid library CCNG1;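 note: natural log of median RNA to DNA barcode read ratio; higher means stronger binding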
measurement kind: interaction score

a = DENQQLKQKIQELEQEIQELKWENQELKQ [4H1804-bN]
b = DENQQLKQEIQELKQENQELKWKIQELEQ [4H1629-bN]
Incoming: Form field 'greater interaction score' accepts a or b ; which applies? Lab note: record the label of whichever item you select.
Outgoing: a
(a: -0.425, b: -2.51)
